study-system: human TLR9 (Homo sapiens (Human))
Sequence (Q9NR96 26-1032): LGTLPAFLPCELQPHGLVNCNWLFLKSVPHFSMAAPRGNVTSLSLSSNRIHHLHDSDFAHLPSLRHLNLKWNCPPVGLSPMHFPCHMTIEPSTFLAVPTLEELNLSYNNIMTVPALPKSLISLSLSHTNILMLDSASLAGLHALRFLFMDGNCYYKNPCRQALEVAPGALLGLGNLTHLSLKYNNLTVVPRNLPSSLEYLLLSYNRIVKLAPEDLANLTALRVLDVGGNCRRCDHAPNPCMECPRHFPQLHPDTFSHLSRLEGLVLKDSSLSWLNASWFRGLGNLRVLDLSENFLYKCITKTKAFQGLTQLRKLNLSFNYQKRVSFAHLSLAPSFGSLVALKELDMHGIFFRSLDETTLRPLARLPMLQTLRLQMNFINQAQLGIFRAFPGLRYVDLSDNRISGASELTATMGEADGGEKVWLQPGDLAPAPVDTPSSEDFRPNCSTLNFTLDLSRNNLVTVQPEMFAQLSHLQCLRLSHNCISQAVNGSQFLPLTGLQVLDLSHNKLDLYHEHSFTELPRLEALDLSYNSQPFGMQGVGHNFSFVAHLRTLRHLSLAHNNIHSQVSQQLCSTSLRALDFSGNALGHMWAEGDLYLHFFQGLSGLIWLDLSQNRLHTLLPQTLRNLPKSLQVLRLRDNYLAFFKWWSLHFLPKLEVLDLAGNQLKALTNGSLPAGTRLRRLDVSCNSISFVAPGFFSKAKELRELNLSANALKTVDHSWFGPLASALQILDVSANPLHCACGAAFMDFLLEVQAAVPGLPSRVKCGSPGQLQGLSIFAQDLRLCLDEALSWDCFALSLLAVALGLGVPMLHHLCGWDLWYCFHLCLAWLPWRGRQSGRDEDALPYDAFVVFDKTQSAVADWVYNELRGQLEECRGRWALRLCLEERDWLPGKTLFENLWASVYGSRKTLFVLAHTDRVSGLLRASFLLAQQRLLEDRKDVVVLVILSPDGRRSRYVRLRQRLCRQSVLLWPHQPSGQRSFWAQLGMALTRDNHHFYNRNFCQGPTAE
measurement-protocol: TLR9 inhibition reporter assay (HEK-Blue SEAP);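 further: SEAP driven by an IFN-β minimal promoter with NF-κB and AP-1 sites, read after 22 h, compounds dosed 0.05 nM–50 µM, inhibition scaled between agonist plus DMSO and reference-inhibitor wells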
condition-notes: read-out: TLR9 IC50; HEK-Blue cells overexpressing human TLR9, ODN2006 5 nM stimulation, SEAP reporter
Entries whose IC50 is below 6 µM take fulfilled; entries at or above 6 µM take not fulfilled.

molecule | category-label
Cc1c(-c2[nH]c3ccc(C4CCC(N5CCS(=O)(=O)CC5)CC4)nc3c2C(C)C)cn2ncnc2c1C (stereo not shown) [Example 383] | not fulfilled
CC(C)c1c(-c2cc(CO)c3ncnn3c2)[nH]c2ccc(N3CCC(NC4COC4)CC3)nc12 [Example 81] | not fulfilled
COc1cc(-c2[nH]c3ccc(C4CCC(NCC(=O)N(C)C)CC4)nc3c2C(C)C)cn2ncnc12 (stereo not shown) [Example 231] | fulfilled
Cc1c(-c2[nH]c3ccc(C4CCC(N(C5CC5)C5COC5)CC4)nc3c2C(C)C)cn2cnnc2c1C (stereo not shown) [Example 237] | not fulfilled
COc1cc(-c2[nH]c3ccc(C4CCC(N(C)C5CC5)CC4)nc3c2C(C)C)cn2ncnc12 (stereo not shown) [Example 171] | fulfilled
COCc1cc(-c2[nH]c3ccc(C4CCC(NCC(=O)N(C)C)CC4)nc3c2C(C)C)cn2ncnc12 (stereo not shown) [Example 213] | fulfilled
Cc1c(-c2[nH]c3ccc(C4CCC(NCCC(F)(F)F)CC4)nc3c2C(C)C)cn2ncnc2c1C (stereo not shown) [Example 373] | fulfilled
COc1cc(-c2[nH]c3ccc(C4CCC(NC5COC5)CC4)nc3c2C(C)C)cn2ncnc12 (stereo not shown) [Example 178] | fulfilled
CC(C)c1c(-c2cn(C)c3ncccc23)[nH]c2ccc(C3CCC(NC4CCOCC4)CC3)nc12 (stereo not shown) [Example 265] | fulfilled
CCn1cc(-c2[nH]c3ccc(C4CCC(NC5CCOCC5)CC4)nc3c2C(C)C)c2cccnc21 (stereo not shown) [Example 289] | fulfilled
Cc1c(-c2[nH]c3ccc(N4CC(NCC(=O)N(C)C)C4)nc3c2C(C)C)cn2ncnc2c1C [Example 26] | not fulfilled
Cc1cc(-c2[nH]c3ccc(C4CCC(N5CC6(COC6)C5)CC4)nc3c2C(C)C)cn2ncnc12 (stereo not shown) [Example 288] | not fulfilled
COc1cc(-c2[nH]c3ccc(N4CCN(CC(C)(C)O)CC4)nc3c2C(C)C)cn2ncnc12 [Example 106] | not fulfilled
CNC1CCC(c2ccc3[nH]c(-c4cn(C)c5ncccc45)c(C(C)C)c3n2)CC1 (stereo not shown) [Example 302] | fulfilled
Cc1c(-c2[nH]c3ccc(N4CCC(N(C)C5COC5)CC4)nc3c2C(C)C)cn2ncnc2c1C [Example 65] | not fulfilled
COc1cc(-c2[nH]c3ccc(N4CC(N)C4)nc3c2C(C)C)cn2ncnc12 [Example 16] | fulfilled

* * *

Each record here notes measured pIC50.
study-system: UniProtKB Q9NR97
Sequence (Q9NR97 27-1041): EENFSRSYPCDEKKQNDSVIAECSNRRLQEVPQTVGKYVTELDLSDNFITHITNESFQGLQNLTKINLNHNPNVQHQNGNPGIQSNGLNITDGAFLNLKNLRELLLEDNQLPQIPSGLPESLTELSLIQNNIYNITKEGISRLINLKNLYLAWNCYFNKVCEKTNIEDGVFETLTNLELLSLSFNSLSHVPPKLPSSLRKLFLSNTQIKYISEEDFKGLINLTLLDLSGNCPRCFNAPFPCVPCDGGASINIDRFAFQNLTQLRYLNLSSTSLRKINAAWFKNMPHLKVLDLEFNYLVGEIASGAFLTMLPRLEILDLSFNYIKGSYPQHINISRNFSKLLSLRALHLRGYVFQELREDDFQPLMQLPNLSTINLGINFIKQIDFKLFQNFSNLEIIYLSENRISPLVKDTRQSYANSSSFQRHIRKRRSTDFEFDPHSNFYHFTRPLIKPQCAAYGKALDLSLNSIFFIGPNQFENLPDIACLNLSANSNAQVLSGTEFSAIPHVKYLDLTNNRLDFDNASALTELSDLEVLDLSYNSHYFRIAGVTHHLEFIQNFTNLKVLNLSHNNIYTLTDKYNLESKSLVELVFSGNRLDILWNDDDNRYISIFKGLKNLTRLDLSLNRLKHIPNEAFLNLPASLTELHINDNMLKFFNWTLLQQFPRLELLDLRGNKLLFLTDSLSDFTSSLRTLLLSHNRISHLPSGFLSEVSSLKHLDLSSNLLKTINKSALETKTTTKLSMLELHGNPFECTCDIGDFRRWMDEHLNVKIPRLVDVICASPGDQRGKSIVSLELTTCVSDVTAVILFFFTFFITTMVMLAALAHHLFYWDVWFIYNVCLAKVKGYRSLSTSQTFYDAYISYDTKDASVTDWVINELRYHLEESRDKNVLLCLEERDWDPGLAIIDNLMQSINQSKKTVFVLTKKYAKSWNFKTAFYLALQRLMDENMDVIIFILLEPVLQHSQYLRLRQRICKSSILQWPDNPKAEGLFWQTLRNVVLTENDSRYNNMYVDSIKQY
measurement-protocol: TLR8 inhibition reporter assay (HEK-Blue SEAP)
condition-notes: read-out: TLR8 IC50; HEK-Blue human TLR8 cells, R848 15.9 μM
pIC50: −log10 of the molar value.
recorded-metric: pIC50

molecule | study-system | observed-measurement
Cc1c(-c2[nH]c3ccc(N4CCN(C(=O)CN5CCC5)C[C@@H]4C)nc3c2C(C)C)cn2ncnc2c1C | UniProtKB Q9NR97 | 8.68
Cc1c(-c2[nH]c3ccc(N4C[C@H](C)N(C(=O)CN(C)C(C)(C)C)C[C@H]4C)nc3c2C(C)C)cn2ncnc2c1C | UniProtKB Q9NR97 | 8.01
CCN(CC(=O)N1C[C@H](C)N(c2ccc3[nH]c(-c4cn5ncnc5c(C)c4C)c(C(C)C)c3n2)C[C@H]1C)C(C)C | UniProtKB Q9NR97 | 8.66
Cc1c(-c2[nH]c3ccc(N4CC5(CN(CC(C)(C)C)C5)C4)nc3c2C(C)C)cn2ncnc2c1C | UniProtKB Q9NR97 | 8.33
Cc1c(-c2[nH]c3ccc(N4C[C@@H](C)N(C(=O)CCN5CCC6(COC6)C5)C[C@@H]4C)nc3c2C(C)C)cn2ncnc2c1C | UniProtKB Q9NR97 | 9.10
Cc1c(-c2[nH]c3ccc(N4CCN(C(=O)CN5CCC(F)C5)CC4)nc3c2C(C)C)cn2ncnc2c1C (stereo not drawn) | UniProtKB Q9NR97 | 8.54
Cc1c(-c2[nH]c3ccc(N4CCN(C(=O)CN(C(C)C)C(C)C)CC4)nc3c2C(C)C)cn2ncnc2c1C | UniProtKB Q9NR97 | 8.64
Cc1c(-c2[nH]c3ccc(C4CCC(N(C)C(C)C)CC4)nc3c2C(C)C)cn2ncnc2c1C (stereo not drawn) | UniProtKB Q9NR97 | 7.89
Cc1c(-c2[nH]c3ccc(N4CCN(C(=O)CN(C)CCO)CC4)nc3c2C(C)C)cn2ncnc2c1C | UniProtKB Q9NR97 | 9.92
COc1cc(-c2[nH]c3ccc(N4CC5(C4)CN(C(C)C)C5)nc3c2C(C)C)cn2ncnc12 | UniProtKB Q9NR97 | 7.77
Cc1c(-c2[nH]c3ccc(N4CCN(C(=O)CN)CC4)nc3c2C(C)C)cn2ncnc2c1C | UniProtKB Q9NR97 | 8.64
Cc1c(-c2[nH]c3ccc(N4[C@@H]5CC[C@H]4CN(C(=O)CN4CCCC4)C5)nc3c2C(C)C)cn2ncnc2c1C | UniProtKB Q9NR97 | 8.47
CCNCC(=O)N1CCN(c2ccc3[nH]c(-c4cn5ncnc5c(C)c4C)c(C(C)C)c3n2)CC1 | UniProtKB Q9NR97 | 9.04
Cc1c(-c2[nH]c3ccc(N4CCN(C(C)C)[C@H](C)C4)nc3c2C(C)C)cn2ncnc2c1C | UniProtKB Q9NR97 | 8.66
Cc1c(-c2[nH]c3ccc(C4CCC(N5CCC5)CC4)nc3c2C(C)C)cn2ncnc2c1C (stereo not drawn) | UniProtKB Q9NR97 | 8.82
CCN(CC)CC(=O)N1CCN(c2ccc3[nH]c(-c4cn5ncnc5c(C)c4C)c(C(C)C)c3n2)C[C@@H]1C | UniProtKB Q9NR97 | 8.49
Cc1c(-c2[nH]c3ccc(NCCN)nc3c2C(C)C)cn2ncnc2c1C | UniProtKB Q9NR97 | 7.40
COc1cc(-c2[nH]c3ccc(N4CC5(CN(CC(C)(C)O)C5)C4)nc3c2C(C)C)cn2ncnc12 | UniProtKB Q9NR97 | 7.96
Cc1c(-c2[nH]c3ccc(N4CCN(C(=O)CN5CCCC5)[C@@H](C)C4)nc3c2C(C)C)cn2ncnc2c1C | UniProtKB Q9NR97 | 8.77
Cc1c(-c2[nH]c3ccc(N4[C@H](C)CN(C(=O)CN(C)C)C[C@H]4C)nc3c2C(C)C)cn2ncnc2c1C | UniProtKB Q9NR97 | 7.77
Cc1c(-c2[nH]c3ccc(C4CCC(N5CC6(CCOC6)C5)CC4)nc3c2C(C)C)cn2ncnc2c1C (stereo not drawn) [Example 1061] | UniProtKB Q9NR97 | 8.32
Cc1c(-c2[nH]c3ccc(N4CCN[C@@H](C)C4)nc3c2C(C)C)cn2ncnc2c1C | UniProtKB Q9NR97 | 9.51
Cc1c(-c2[nH]c3ccc(N4[C@@H]5CC[C@H]4CN(C(=O)CN(C)C(C)C)C5)nc3c2C(C)C)cn2ncnc2c1C | UniProtKB Q9NR97 | 8.44
Cc1c(-c2[nH]c3ccc(N4CCN(C(=O)CN5CCOCC5(C)C)CC4)nc3c2C(C)C)cn2ncnc2c1C | UniProtKB Q9NR97 | 8.31
CCN(C1CCC(c2ccc3[nH]c(-c4cn5ncnc5c(C)c4C)c(C(C)C)c3n2)CC1)C1COC1 (stereo not drawn) [Example 1039] | UniProtKB Q9NR97 | 8.19
Cc1c(-c2[nH]c3ccc(N4CCN(CCCS(C)(=O)=O)C[C@H]4C)nc3c2C(C)C)cn2ncnc2c1C | UniProtKB Q9NR97 | 8.96
CCCCN(CC)CC(=O)N1CCN(c2ccc3[nH]c(-c4cn5ncnc5c(C)c4C)c(C(C)C)c3n2)CC1 | UniProtKB Q9NR97 | 6.29

Source of measurements: patent US10544143B2
